system: SW-620 colon; experiment: NCI-60 one-dose screen, 48 h (100 = growth as untreated, 0 = no growth, -100 = all killed); settings: 10 µM
The panel holds about 83,000 compounds, 20% with a hit somewhere; the sample as a whole holds those more often.
// returns NO unless growth is strictly below 40%, in which case YES

Reference set (8 entries):
O=C(Nc1cc(Cl)cc(Cl)c1)Nc1cc(Cl)cc(Cl)c1    YES
CC(C)(C)Nc1nc2cc(Cl)c(Cl)cc2nc1S(C)(=O)=O    YES
Cc1cc(C)nc(SCC(=O)Nc2ccc(S(N)(=O)=O)cc2)n1    NO
CC1=N/C(=C\c2ccc(N(C)C)cc2)C(=O)N1CCc1ccc(S(N)(=O)=O)cc1    NO
CN1C(=O)N(C)C2SC(N/N=C/C=C/c3ccccc3)=NC21 (configuration not stated)    NO
Nc1nc2c(F)c(F)c(F)c(F)c2s1    NO
CN1CCN(c2ccc(C(=O)/C=C/c3cc(Br)ccc3F)cc2)CC1    YES
COc1ccc2[nH]cc(/C=N/Nc3ccc(Br)cn3)c2c1    YES

Attention now shifts to the item below.
growth under 40%? Item: CC(=O)OC[C@@]1(C)C2CC[C@]3(C)C(CC=C4C5CC(C)(C)CC[C@]5(C(=O)Nc5ccccc5)CC[C@]43C)[C@@]2(C)C[C@@H](OC(C)=O)[C@@H]1OC(C)=O (some centres not stated)
YES

---

system: NCI-H460 lung; assay: NCI-60 one-dose screen, 48 h; conditions: 10 µM
This is part of a sample that, as a whole, favours compounds with a hit. Of some 83,000 tested, about 20% had one in any assay. Active and inactive are the calls of the source. The calls were made as follows: active = growth percent below 10; inactive = the rest.
Write down the outcome that applies. Available outcomes: active, inactive

Examples from the recorded data:
Cc1ccc(CSc2nc(-c3ccc(F)cc3)c(C#N)c(=O)[nH]2)cc1    inactive
CCOC(=O)c1c(CSc2ccccc2)n(C)c2cc(CN(C)C)c(O)c(CN(C)C)c12    inactive

Continue with the next compound.
Please indicate how the test categorized CCCCCc1ccc(S(=O)(=O)N(C(C)=O)c2cc(-c3csc(N(C)C(C)=O)n3)ccc2N2CCN(C)CC2)cc1 .
active

---

system: MCF7 breast; test: NCI-60 one-dose screen, 48 h (100 = growth as untreated, 0 = no growth, -100 = all killed); conditions: 10 µM
About 83,000 compounds went through this panel and 20% of them were active in at least one assay; those are over-represented in the sample as a whole.
Below, each entry is listed with its recorded growth.
Could you give me the number in %? Just the number is fine.

Nc1nc(Nc2ccc(Cl)cc2)n(Cc2cccc(Br)c2)n1    -31.6
O=C(N/C(=C1/OCCN1Cc1ccccc1)[P+](c1ccccc1)(c1ccccc1)c1ccccc1)c1ccccc1    1.56
N#C/C(=C\c1ccc(N(c2ccccc2)c2ccccc2)cc1)C(N)=O    6.51

Supply recorded growth for COc1cc2c(cc1OC)CN(CCCCOc1cc(O)c3c(=O)cc(-c4ccccc4)oc3c1)CC2 here.
29.3

Return growth (reported value) for this compound: O=C(CN1CCN(c2ncnc3c2cnn3-c2ccccc2)CC1)Nc1nncs1
16.1

Please indicate growth recorded for COc1ccc(NC(=O)Nc2ccc(OCC(=O)N=Nc3c(O)[nH]c4ccc([N+](=O)[O-])cc34)cc2)cc1
38.2

Give a short answer stating reported growth for Nc1nc2c(F)c(F)c(F)c(F)c2s1 .
93.7

Please give the documented growth of C[C@H]1[C@H](C)CC[C@]2(COC(=O)CCC(=O)NCC#CCN3CCNCC3)CC[C@]3(C)C(=CC[C@@H]4[C@@]5(C)CCCNC(C)(C)[C@@H]5CC[C@]43C)[C@H]12
1.4

Hello, please tell me recorded growth for this one: CC(=O)Nc1ccc(-n2cnc3cc(-c4ccc(NS(C)(=O)=O)cc4)ccc32)cc1
16.8

Respond only with growth recorded for CC1(c2ccccc2)NC(=O)N(CC(=O)Nc2ccc(C(=O)/C=C/c3ccc(Cl)cc3)cc2)C1=O (stereo not given)
-66.6

---

Test system: BT-549 breast
Test: NCI-60 one-dose screen, 48 h (100 = growth as untreated, 0 = no growth, -100 = all killed)
Conditions: 10 µM
Procedure: Growth inhibition of the BT-549 human tumor cell line is measured as a screen for anti-cancer activity. Cells are grown in 96 well plates and exposed to the test compound for 48 hours. Compounds are tested at a single concentration, which is 10^-5 M for most compounds. The reported endpoint is percent growth (GI% or GIPRCNT), where numbers from 0 - 100% represent growth inhibition, and numbers from -100% - 0 represent cell death. For example, a value of 40 represents 60% growth inhibition. […]
This is part of a sample that, as a whole, favours compounds with a hit. Of some 83,000 tested, about 20% had one in any assay.
Property Measured: growth (%)
The answer is to be given in %; state only the numeric part.

Example results:
Cc1nc2c(cnn2-c2ccccc2)c(=O)n1-c1ccc(NC(=O)c2ccc(F)cc2)cc1    46
Cn1cc(/C=N/Nc2cccc(Cl)n2)c2ccccc21    43.4
Cc1cccc(NC(=O)CSc2nc3ccc(F)cc3c(=O)n2-c2ccc(Cl)cc2)c1C    32

Provide the reported growth (system: BT-549 breast) for Cc1cc(C(F)(F)F)ccc1C(=O)Nc1sc2c(c1C#N)CCC(=O)C2
-76.1

Give reported growth for COc1ccc(-c2cc(-c3cc(C(=O)c4ccc(Br)cc4)n4ccc(C)cc34)nc(N)c2C#N)cc1 (BT-549 breast)
104

Specify growth for CSc1nc(-c2cccc(C)c2)c2cc(-c3ccccc3)n(C)c2n1 , system BT-549 breast.
-5.93

Given COc1ccccc1[C@H]1C(C(=O)c2ccc(O)cc2)C2(N[C@@H]1c1ccccc1)C(=O)Nc1ccc(Br)cc12 (stereo not given in full) , report its growth on BT-549 breast.
54

Quote BT-549 breast growth for entry CN1C(=O)N(C)C2SC(N/N=C/C=C/c3ccccc3)=NC21 (stereo not given) .
64.1

Give measured growth for O=c1[nH]c2ccccc2cc1CSc1ccc(Nc2nccc(-c3ccc4c(c3)OCO4)n2)cc1 (BT-549 breast).
65.5

Give growth for this entry on BT-549 breast: COc1cc2c(c(OC)c1OC)C(=O)CC(c1cccc(NC(=O)c3cccc(N)c3)c1)O2 (stereo not given)
63.8

---

tested on: TK-10 renal; assay: NCI-60 one-dose screen, 48 h; details: 10 µM
Compounds without any hit were thinned out: in the full panel of roughly 83,000, 20% have a hit. The source made the active and inactive calls. How the source made its calls: active means growth percent below 10; inactive means the rest.
Answer with one of the outcomes given here: active, inactive

Consider the worked cases shown below.
COc1ccc(/C(CSc2nnc(-c3c[nH]c4ccccc34)n2-c2ccccc2)=N/O)cc1    inactive
COc1ccc(-c2nc(S(=O)(=O)c3ccc(C)cc3)c(S(C)(=O)=O)o2)cc1    active
CC1(c2ccccc2)NC(=O)N(CC(=O)Nc2ccc(C(=O)/C=C/C=C/c3ccccc3)cc2)C1=O (stereo unspecified)    inactive
COc1cc2c(cc1OC)/C(=C\c1sc(Nc3ccc(O)cc3)nc1O)C(C(=O)O)=N2    inactive
O=C1Nc2ccc(F)cc2/C1=C/c1cccc(OCc2ccccn2)c1    inactive

Lab log entry: COc1ccc2nc(Nc3cccc(NC(=O)c4ccc(CN5CCN(C)CC5)c(C(F)(F)F)c4)c3)ccc2c1 — outcome as called in the assay?
active

Record request — test call for O=c1[nH]c2ccc(Cl)cc2cc1CSc1ccc(Nc2nccc(-c3ccc(Cl)cc3)n2)cc1
inactive

Returns: the outcome recorded for CC1(C)CC[C@]2(C(=O)NCCCNCCCCNCCCN)CC[C@]3(C)C(=CC[C@@H]4[C@@]5(C)Cc6c([nH]c7ccccc67)C(C)(C)[C@@H]5CC[C@]43C)[C@H]2C1 in this assay.
inactive

Which outcome was entered for the compound Cc1nc2c(cnn2-c2ccccc2)c(=O)n1-c1ccc(NC(=O)c2ccc(F)cc2)cc1 in this test?
inactive

// param item: Nc1nnc(-c2c[nH]c3ncccc23)c(-c2c[nH]c3ccc(Br)cc23)n1 ; yields the recorded call
inactive

# lookup: test call for CN1CCN(c2ccc(C(=O)/C=C/c3ccc(C#N)cc3)cc2)CC1
inactive

Write down the call the test reported for this compound. Item: CS(=O)(=O)Nc1ccc(-c2ccc3c(c2)ncn3-c2ccc(NC(=O)Nc3ccc(Br)cc3)cc2)cc1
inactive

Which result was noted for this compound in the test: CCOc1ccc2ncc(C#Cc3cncc(C(=O)Nc4ccc(CN5CCN(C)CC5)c(C(F)(F)F)c4)c3)n2n1
active

Which result was noted for this compound in the test: Cn1cc(-c2cc(N)n3nc(-c4c[nH]c5ccc(Br)cc45)cc3n2)c2cc(Br)cnc21
active

Recorded test call requested for O=C(O)CCCCCCCCCCN1C(=O)/C(=C/c2cnc(-c3ccc(Cl)cc3)s2)SC1=S
inactive

What was the test verdict on CC(=O)Nc1ccc(-c2cn(-c3cccc(C(=O)Nc4cc(C(F)(F)F)cc(C(F)(F)F)c4)c3)nn2)cn1 ?
active
